test_target: T1, human BAFF receptor (BAFFR) (human, UniProt Q96RJ3 1-184)
T1 construct: On Raji cells (endogenous), on transfected HEK293-hBAFFR cells, and on primary human blood B cells in the functional assays; also called hBAFFR; BR3
T1 sequence: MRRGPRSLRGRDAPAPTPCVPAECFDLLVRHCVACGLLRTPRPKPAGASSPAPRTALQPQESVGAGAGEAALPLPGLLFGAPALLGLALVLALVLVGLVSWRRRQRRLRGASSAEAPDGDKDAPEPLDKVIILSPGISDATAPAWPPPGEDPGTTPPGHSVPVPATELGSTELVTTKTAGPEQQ
experiment_summary: competition FACS on Raji cells; Fab titrated, competitor biotinylated hsBLyS
measured_parameter: IC50 (nM)
# output: bare number, implied unit nM

In: Need IC50, item MOR07348 Fab (Fab, V domains shown, Human Fab format; also called MOR7348; MOR007348) VH: QVQLQQSGPGLVKPSQTLSLTCAISGDSVSSNSAAWGWIRQSPGRGLEWLGRIYYRSKWYNSYAVSVKSRITINPDTSKNQFSLQLNSVTPEDTAVYYCARYDWVPKIGVFDLWGQGTLVTVSS VL: DIVLTQSPATLSLSPGERATLSCRASQWIEAGYLSWYQQKPGQAPRLLIYGSSSRATGVPARFSGSGSGTDFTLTISSLEPEDFAVYYCQQLYSSPMTFGQGTKVEIK
Out: 0.2

From: patent US20120195913A1
